Target: Serine/threonine-protein kinase MRCK alpha (Homo sapiens);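 note: each inhibition figure is a mean value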
Conditions: at 0.1 µM
Each entry below carries its reported inhibition.
Output spec: scalar in %, unitless text.

Worked cases, answers included:
Fc1cccc(COc2ccc(Nc3ncnc4sc(-c5cccs5)cc34)cc2Cl)c1: 1.75
NS(=O)(=O)c1ccc(N/N=C2\C(=O)Nc3ccc(C(=O)NCCc4c[nH]cn4)cc32)cc1: -0.15
COc1cc2ncn(-c3cc(OCc4ccccc4Cl)c(C(N)=O)s3)c2cc1OC: -0.28
COc1ccc2cc(-c3c(-c4ccncc4)nc(-c4ccc([S+](C)[O-])cc4)n3C)ccc2c1 (stereo not given): 0.19
O=C(Nc1n[nH]c2nc(-c3ccco3)c(Br)cc12)C1CC1: 0.4
Fc1cccc(COc2ccc(Nc3ncnc4cc(-c5ccc[nH]5)sc34)cc2Cl)c1: -0.43
Cc1nnc(-c2ccc(C)c(-c3ccc(C(=O)Nc4cccc(C#N)c4)cc3)c2)o1: 0.21
COc1cc2c(cc1Nc1nc(N3CCc4ccccc43)c3cc[nH]c3n1)N(C(=O)CN(C)C)CC2: 1

Entry `COc1ccc(-c2nn3ncccc3c2-c2ccnc(Nc3ccc(Cl)c(C(F)(F)F)c3)n2)cc1` : reported inhibition = ? -0.16

Entry `O=C1NC(=O)C(c2cccc(Cl)c2)=C1Nc1ccc(O)c(Cl)c1` : reported inhibition = ? 0.28

====

Target: Leukocyte tyrosine kinase receptor (Homo sapiens) (UniProt P29376);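 note: each value is the mean inhibition of LTK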
Sequence (P29376 whole entry): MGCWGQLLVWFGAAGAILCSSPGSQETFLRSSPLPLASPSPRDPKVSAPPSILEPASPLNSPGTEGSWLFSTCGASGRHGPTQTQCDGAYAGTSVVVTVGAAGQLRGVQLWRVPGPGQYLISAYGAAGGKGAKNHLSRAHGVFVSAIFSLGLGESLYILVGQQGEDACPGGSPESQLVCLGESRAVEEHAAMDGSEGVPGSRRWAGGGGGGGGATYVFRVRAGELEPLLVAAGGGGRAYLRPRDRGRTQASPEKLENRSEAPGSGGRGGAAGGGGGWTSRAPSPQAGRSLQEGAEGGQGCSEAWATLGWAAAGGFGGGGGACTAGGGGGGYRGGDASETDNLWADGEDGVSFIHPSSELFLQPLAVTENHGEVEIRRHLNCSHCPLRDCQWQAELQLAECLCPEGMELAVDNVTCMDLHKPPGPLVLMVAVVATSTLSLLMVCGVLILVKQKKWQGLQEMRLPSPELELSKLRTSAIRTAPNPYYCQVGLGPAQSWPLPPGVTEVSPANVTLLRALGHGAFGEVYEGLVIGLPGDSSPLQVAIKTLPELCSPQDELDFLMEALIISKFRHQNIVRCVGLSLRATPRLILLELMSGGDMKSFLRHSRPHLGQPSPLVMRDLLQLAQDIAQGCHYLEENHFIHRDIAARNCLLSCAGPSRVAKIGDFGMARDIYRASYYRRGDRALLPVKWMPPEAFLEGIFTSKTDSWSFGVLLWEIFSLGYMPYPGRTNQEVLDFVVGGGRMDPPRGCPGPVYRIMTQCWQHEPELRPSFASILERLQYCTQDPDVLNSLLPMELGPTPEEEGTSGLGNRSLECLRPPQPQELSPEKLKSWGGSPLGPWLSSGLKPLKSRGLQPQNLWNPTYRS
Details: at 1 µM
result-type: inhibition (%)
Output spec: scalar in %, unitless text.

c1cnn2ncc(-c3ccnc(Nc4ccc5c(c4)OCCO5)n3)c2c1: 21.9
CCn1c(-c2nonc2N)nc2cncc(C(=O)N3CCNCC3)c21: 5.18
NS(=O)(=O)c1cccc(-c2ccc3c(NC(=O)C4CC4)n[nH]c3c2)c1: -0.78

Entry `CCn1c(-c2nonc2N)nc2cncc(C(=O)N3CC[C@H](N)C3)c21` : reported inhibition = ? 4.61

Entry `CN(C)c1cc2c(Nc3ccc4nc(Cc5ccccc5)[nH]c4c3)ncnc2cn1` : reported inhibition = ? 3.97

Entry `COc1cc(C)c(NC(=O)CN(C)C)cc1Nc1nc(Nc2cccc(F)c2C(N)=O)c2cc[nH]c2n1` : reported inhibition = ? 95.6

Entry `Cn1cc(C=C2C(=O)Nc3cccnc32)c2ccccc21` : reported inhibition = ? 5.51

Entry `CCn1c(-c2nonc2N)nc2c(C#CC(C)(C)O)nc(OC[C@@H](N)c3ccccc3)cc21` : reported inhibition = ? 9.21

Entry `COc1cc2ncn(-c3cc(O[C@@H](C)c4ccccc4Cl)c(C(N)=O)s3)c2cc1OC` : reported inhibition = ? 4.56

Entry `Nc1nc(-c2ccc3c(c2)C(=Cc2cc(Br)c(O)c(Br)c2)C(=O)N3)cs1` : reported inhibition = ? 17.4

Entry `CN1CCC(C(=O)Nc2n[nH]c3nnc(-c4ccccc4)cc23)CC1` : reported inhibition = ? 4.51

Entry `O=C1Nc2ccc(C(=O)c3ccco3)cc2C1=Cc1cc(Cl)c(O)c(Cl)c1` : reported inhibition = ? 44.2

Entry `COc1ccc(-c2coc3ncnc(N)c23)cc1` : reported inhibition = ? 2.3

Entry `CS(=O)(=O)CCNCc1nc(-c2ccc3ncnc(Nc4ccc(F)c(Cl)c4)c3c2)cs1` : reported inhibition = ? 1.99

Entry `Cc1nnc(-c2ccc(C)c(-c3ccc(C(=O)Nc4cccc(C#N)c4)cc3)c2)o1` : reported inhibition = ? 1.76

Entry `COC(=O)Nc1nc2cc(Oc3ccc(NC(=O)Nc4cccc(C(=O)O)c4)cc3)ccc2[nH]1` : reported inhibition = ? -0.52

Entry `N#Cc1c(NC(=O)c2cccc3ccccc23)sc2c1CCCC2` : reported inhibition = ? 2.53

Entry `O=C1NC(=O)C(c2ccc(Cl)cc2)=C1Nc1ccc(Cl)c(C(=O)O)c1` : reported inhibition = ? -0.2

Entry `Fc1cccc(COc2ccc(Nc3ncnc4cc(-c5ccc[nH]5)sc34)cc2Cl)c1` : reported inhibition = ? 9.35

Entry `CCc1cccc(NC(=O)Nc2ccc(Oc3ccc4nc(NC(=O)OC)[nH]c4c3)cc2)c1` : reported inhibition = ? 0.04

Entry COc1ccc2cc(-c3c(-c4ccncc4)nc(-c4ccc([S+](C)[O-])cc4)n3C)ccc2c1 (centres undefined) : reported inhibition = ? 2.37

Entry `COc1cc2ncn(-c3cc(OCc4ccccc4C(F)(F)F)c(C(N)=O)s3)c2cc1OC` : reported inhibition = ? 4.35

====

Target: Ephrin type-A receptor 4 (Homo sapiens) (UniProt P54764);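 note: mean inhibition of EPHA4 from the GSK PKIS screening set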
Sequence (P54764 whole entry): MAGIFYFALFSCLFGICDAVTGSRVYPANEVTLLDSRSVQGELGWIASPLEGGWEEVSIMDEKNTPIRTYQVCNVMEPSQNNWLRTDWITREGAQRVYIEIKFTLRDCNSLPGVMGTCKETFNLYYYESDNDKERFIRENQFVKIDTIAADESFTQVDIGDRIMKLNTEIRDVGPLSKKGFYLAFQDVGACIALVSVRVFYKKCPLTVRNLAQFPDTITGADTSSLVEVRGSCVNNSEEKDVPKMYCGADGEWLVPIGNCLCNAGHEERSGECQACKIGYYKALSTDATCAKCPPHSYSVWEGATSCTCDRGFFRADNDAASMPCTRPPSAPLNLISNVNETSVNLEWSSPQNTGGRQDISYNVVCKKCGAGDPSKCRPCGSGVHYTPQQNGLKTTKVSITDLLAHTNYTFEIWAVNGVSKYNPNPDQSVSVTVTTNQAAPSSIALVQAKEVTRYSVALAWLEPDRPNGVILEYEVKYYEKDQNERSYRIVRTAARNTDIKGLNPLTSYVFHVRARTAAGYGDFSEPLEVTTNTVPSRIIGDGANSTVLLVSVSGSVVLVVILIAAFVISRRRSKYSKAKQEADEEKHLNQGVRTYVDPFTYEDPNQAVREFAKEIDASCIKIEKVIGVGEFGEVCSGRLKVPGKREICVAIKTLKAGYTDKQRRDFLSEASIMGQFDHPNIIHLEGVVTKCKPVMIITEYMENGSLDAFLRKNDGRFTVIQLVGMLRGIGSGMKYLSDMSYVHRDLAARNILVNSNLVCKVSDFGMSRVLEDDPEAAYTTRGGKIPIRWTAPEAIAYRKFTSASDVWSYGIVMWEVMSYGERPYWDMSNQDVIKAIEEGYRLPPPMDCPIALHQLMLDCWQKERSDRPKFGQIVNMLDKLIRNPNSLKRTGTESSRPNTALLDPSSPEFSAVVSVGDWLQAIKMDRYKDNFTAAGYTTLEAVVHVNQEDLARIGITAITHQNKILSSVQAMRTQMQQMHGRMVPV
Conditions: at 0.1 µM
result-type: inhibition (%)
Output spec: scalar in %, unitless text.

Worked cases, answers included:
CCn1c(-c2nonc2N)nc2cncc(C(=O)N3CC[C@H](N)C3)c21: 9.5
Nc1ncnc2occ(-c3ccc(NC(=O)Nc4cccc(C(F)(F)F)c4)cc3)c12: 46.8
COc1cc(C=NNc2ncnc3c2cnn3-c2ccccc2)ccc1O: 10.2
COc1ccccc1Nc1ncc(-c2ccccc2)o1: 7.21
CCn1c(-c2nonc2N)nc2c(N3CCCC3)nccc21: -6.53
COc1cccc(-n2ncc3c(N/N=C/c4cccc(F)c4)ncnc32)c1: 4.81

Entry `Cc1ccc(NC(=O)c2ccnc(N3CCCC3)c2)cc1-c1ccc(C(=O)NCC2CC2)cc1` : reported inhibition = ? 7.04

Entry `CCCN1CCC(Oc2cc(Nc3nc(Nc4cccc(F)c4C(N)=O)c4cc[nH]c4n3)c(OC)cc2Cl)CC1` : reported inhibition = ? 3.96

Entry `Nc1nc(-c2ccc3c(c2)C(=Cc2cc(Br)c(O)c(Br)c2)C(=O)N3)cs1` : reported inhibition = ? -6.57

Entry `CS(=O)(=O)CCNCc1nc(-c2ccc3ncnc(Nc4ccc(F)c(Cl)c4)c3c2)cs1` : reported inhibition = ? 11.7

====

Target: Cyclin-dependent kinase 1 (Homo sapiens) (UniProt P06493);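 note: enzyme assay on the CDK1/cyclin B complex, reported as mean percent inhibition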
Sequence (P06493 whole entry, looked up): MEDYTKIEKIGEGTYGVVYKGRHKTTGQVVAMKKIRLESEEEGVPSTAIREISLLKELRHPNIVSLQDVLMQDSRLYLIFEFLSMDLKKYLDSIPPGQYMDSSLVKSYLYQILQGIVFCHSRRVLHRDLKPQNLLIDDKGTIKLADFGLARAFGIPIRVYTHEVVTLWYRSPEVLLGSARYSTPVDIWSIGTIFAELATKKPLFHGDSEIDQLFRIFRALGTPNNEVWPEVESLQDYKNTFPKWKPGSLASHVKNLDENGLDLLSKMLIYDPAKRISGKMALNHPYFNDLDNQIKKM
Settings: at 0.1 µM
result-type: inhibition (%)
Output spec: scalar in %, unitless text.

Nc1ncnc2occ(-c3ccc(NC(=O)Nc4cc(C(F)(F)F)cc(C(F)(F)F)c4)cc3)c12: -0.06
COc1cc2ncn(-c3cc(O[C@H](C)c4ccccc4Cl)c(C(N)=O)s3)c2cc1OC: 0.89
Cc1ccc(C(=O)NC2CCCCC2)cc1-c1ccc(C(=O)NCC2CC2)cc1: 0.67
Fc1cccc(COc2ccc(Nc3ncnc4cc(-c5ccc[nH]5)sc34)cc2Cl)c1: -1.89
NC(=O)c1ccc(-c2nc(-c3ccccn3)c(-c3ccc4c(c3)OCO4)[nH]2)cc1: 0.26
CC(C)=Cc1cccc2c1/C(=N/Nc1ccc(S(N)(=O)=O)cc1)C(=O)N2: 28.7
CCCN1CCC=C(c2ccc(Nc3nc(Nc4ccccc4C(N)=O)c4cc[nH]c4n3)c(C)c2)C1: 2.18
Cc1cc(O)cc(C)c1/C=C/c1cncc(-c2nn[nH]n2)c1: -2.89
COc1ccc(COc2ccc(Cc3cnc(N)nc3N)cc2OC)cc1: 1.89
CCn1c(-c2nonc2N)nc2cncc(C(=O)N3CCNCC3)c21: 2.63

Entry `Fc1cccc(COc2ccc(Nc3ncnc4sc(-c5cccs5)cc34)cc2Cl)c1` : reported inhibition = ? 0.75

Entry COc1ccc2cc(-c3c(-c4ccncc4)nc(-c4ccc([S+](C)[O-])cc4)n3C)ccc2c1 (stereo not given) : reported inhibition = ? 0.99

Entry `CCN1CCC(CC(=O)Nc2n[nH]c3nc(-c4cccs4)c(Br)cc23)CC1` : reported inhibition = ? 0.69

Entry `COc1cc(C=NNc2ncnc3c2cnn3-c2ccccc2)ccc1O` : reported inhibition = ? 6.11

Entry `Cn1cc(C=C2C(=O)Nc3cccnc32)c2ccccc21` : reported inhibition = ? 4.27

Entry `COC(=O)Nc1nc2cc(Oc3ccc(NC(=O)Nc4cccc(C(=O)O)c4)cc3)ccc2[nH]1` : reported inhibition = ? -2.2

Entry `COc1cc2ncn(-c3cc(O[C@@H](C)c4ccccc4Cl)c(C(N)=O)s3)c2cc1OC` : reported inhibition = ? -0.28

Entry `NS(=O)(=O)c1cccc(-c2ccc3c(NC(=O)C4CC4)n[nH]c3c2)c1` : reported inhibition = ? 0.37

Entry `N#Cc1c(NC(=O)c2cccc3ccccc23)sc2c1CCCC2` : reported inhibition = ? 1.07

Entry `CN(C)c1cc2c(Nc3ccc4nc(Cc5ccccc5)[nH]c4c3)ncnc2cn1` : reported inhibition = ? -0.43

Entry `COc1cc(C)c(NC(=O)CN(C)C)cc1Nc1nc(Nc2cccc(F)c2C(N)=O)c2cc[nH]c2n1` : reported inhibition = ? -0.88

Entry `CC(=O)Nc1cccc(C#Cc2cncnc2Nc2ccc(OCc3cccc(F)c3)c(Cl)c2)n1` : reported inhibition = ? -0.13

Entry `O=C1NC(=O)C(c2ccc(Cl)cc2)=C1Nc1ccc(Cl)c(C(=O)O)c1` : reported inhibition = ? 0.08

Entry `CS(=O)(=O)CCN(CC#N)Cc1ccc(-c2ccc3ncnc(Nc4ccc(OCc5cccc(F)c5)c(Cl)c4)c3c2)o1` : reported inhibition = ? -3.13

Entry `CCn1c(-c2nonc2N)nc2cncc(C(=O)N3CC[C@H](N)C3)c21` : reported inhibition = ? 0.41

Entry `Nc1nc(-c2ccc3c(c2)C(=Cc2cc(Br)c(O)c(Br)c2)C(=O)N3)cs1` : reported inhibition = ? 0.71

Entry `COc1cc2c(cc1Nc1nc(N3CCc4ccccc43)c3cc[nH]c3n1)N(C(=O)CN(C)C)CC2` : reported inhibition = ? 0.08

Entry `CCc1cccc(NC(=O)Nc2ccc(Oc3ccc4nc(NC(=O)OC)[nH]c4c3)cc2)c1` : reported inhibition = ? -1.03

Entry `O=C1Nc2ccc(C(=O)c3ccco3)cc2C1=Cc1cc(Cl)c(O)c(Cl)c1` : reported inhibition = ? 2.24
